# Tested on: TA 1535
# Test settings: TA 1535, 200 μM
Measured parameter: Mean ± SD

Recorded results for 4 compounds are shown here.
>  <Compound>
O=C(Cn1ccnc1-c1ccccn1)Nc1ccc(-c2ccccc2)cc1 [Compound 4]

>  <Mean ± SD>
0 ± 0 revertant colonies per plate

$$$$
>  <Compound>
CC(C)(C)Sc1ccc(NC(=O)Cn2ccnc2)cc1 [Compound 3]

>  <Mean ± SD>
>150 revertant colonies per plate

$$$$
>  <Compound>
O=C(Cn1cnc2c1CCCC2)Nc1ccc(-c2ccccc2)cc1 [Compound 1]

>  <Mean ± SD>
0 ± 0 revertant colonies per plate

$$$$
>  <Compound>
CC(C)c1nccn1CC(=O)Nc1ccc(-c2ccccc2)cc1 [Compound 2]

>  <Mean ± SD>
1 ± 0 revertant colonies per plate

$$$$

Now look at this one.
QUERY: Item: Cc1nc2c(c(N3CCCN(Cc4ccccc4)CC3)n1)CCCC2 [Compound 31] Test system: TA 1535 Read-out: Mean ± SD Value: ?
RESULT: 2.5 ± 0.7 revertant colonies per plate

----------
Each item that follows carries a reported Mean ± SD.
# Tested on: TA 100
# Experiment summary: Ames Test, strain TA 100
# Test settings: TA 100, 200 μM

Use these answered entries as a reference point.
>  <Compound>
O=C(Cn1ccnc1-c1ccccn1)Nc1ccc(-c2ccccc2)cc1 [Compound 4]

>  <Mean ± SD>
4 ± 1.41 revertant colonies per plate

$$$$
>  <Compound>
CC(C)c1nccn1CC(=O)Nc1ccc(-c2ccccc2)cc1 [Compound 2]

>  <Mean ± SD>
10 ± 0 revertant colonies per plate

$$$$
>  <Compound>
O=C(Cn1cnc2c1CCCC2)Nc1ccc(-c2ccccc2)cc1 [Compound 1]

>  <Mean ± SD>
0 ± 0 revertant colonies per plate

$$$$
>  <Compound>
CC(C)(C)Sc1ccc(NC(=O)Cn2ccnc2)cc1 [Compound 3]

>  <Mean ± SD>
>300 revertant colonies per plate

$$$$

Now look at this entry.
QUERY: Notebook entry, TA 100 assay: Mean ± SD of Cc1nc2c(c(N3CCCN(Cc4ccccc4)CC3)n1)CCCC2 [Compound 31] = ?
RESULT: 6 ± 1.41 revertant colonies per plate

----------
# Tested on: TA 100
# Experiment summary: Ames Test, strain TA 100
# Test settings: TA 100, 50 μM
# Fold increase (over baseline) values compiled below
Would you mind answering with just the numeric figure?

# example entries with known answers
>  <Compound>
CC(C)c1nccn1CC(=O)Nc1ccc(-c2ccccc2)cc1 [Compound 2]

>  <Fold increase (over baseline)>
1.37

$$$$
>  <Compound>
O=C(Cn1ccnc1-c1ccccn1)Nc1ccc(-c2ccccc2)cc1 [Compound 4]

>  <Fold increase (over baseline)>
0.89

$$$$
>  <Compound>
CC(C)(C)Sc1ccc(NC(=O)Cn2ccnc2)cc1 [Compound 3]

>  <Fold increase (over baseline)>
0.85

$$$$
>  <Compound>
Cc1nc2c(c(N3CCCN(Cc4ccccc4)CC3)n1)CCCC2 [Compound 31]

>  <Fold increase (over baseline)>
1.04

$$$$

QUERY: Look up Fold increase (over baseline): O=C(Cn1cnc2c1CCCC2)Nc1ccc(-c2ccccc2)cc1 [Compound 1]
RESULT: 0

----------
# Experiment summary: Caco-2 A-B permeability assay
# Assay type: in vitro ADME
# Test settings: human, Caco-2, pH 7.4, A-B, read-out: Permeability Mean
Structures can show the parent of a compound that is named as a salt.
Entries and their Papp at 90 min values follow.
State just the number; it will be interpreted in ×10⁻⁶ cm/s.

Worked examples follow.
>  <Compound>
O=C(Cn1cnc2c1CCCC2)Nc1ccc(-c2ccccc2)cc1

>  <Reported result>
10.2

$$$$
>  <Compound>
O=C(Cn1ccnc1-c1ccccn1)Nc1ccc(-c2ccccc2)cc1

>  <Reported result>
15.3

$$$$
>  <Compound>
CC(C)NCC(O)COc1cccc2ccccc12 (stereo not drawn) [Propranolol, propranolol hydrochloride, reference compound]

>  <Reported result>
21.8

$$$$
>  <Compound>
CC(C)c1nccn1CC(=O)Nc1ccc(-c2ccccc2)cc1

>  <Reported result>
18.2

$$$$
>  <Compound>
Cc1nc2c(c(N3CCCN(Cc4ccccc4)CC3)n1)CCCC2

>  <Reported result>
49

$$$$

Now let's try a different one.
QUERY: Recorded Papp at 90 min of CC(C)(C)Sc1ccc(NC(=O)Cn2ccnc2)cc1 , please.
RESULT: 40.6

----------
# System: HepG2 cells
# Experiment summary: Cytotoxicity assay (resazurin), HepG2 cell proliferation inhibition
# Assay type: cell-based
# Test settings: Homo sapiens, 30 μM, 24 hours
Measured parameter: inhibition at 30 µM
Kindly format the answer as number then unit.

Answered examples (3):
>  <Smiles text>
CC(C)(C)Sc1ccc(NC(=O)Cn2ccnc2)cc1

>  <Experimental target>
HepG2 cells

>  <Measured parameter>
inhibition at 30 µM

>  <Reported result>
-0.1%

$$$$
>  <Smiles text>
CC(C)c1nccn1CC(=O)Nc1ccc(-c2ccccc2)cc1

>  <Experimental target>
HepG2 cells

>  <Measured parameter>
inhibition at 30 µM

>  <Reported result>
2.4%

$$$$
>  <Smiles text>
O=C(Cn1cnc2c1CCCC2)Nc1ccc(-c2ccccc2)cc1

>  <Experimental target>
HepG2 cells

>  <Measured parameter>
inhibition at 30 µM

>  <Reported result>
-2.5%

$$$$

QUERY: Consider the molecule O=C(Cn1ccnc1-c1ccccn1)Nc1ccc(-c2ccccc2)cc1 and give its measured inhibition at 30 µM.
RESULT: -3.8%

QUERY: Okay, and Cc1nc2c(c(N3CCCN(Cc4ccccc4)CC3)n1)CCCC2 ?
RESULT: -5.4%

----------
Each item that follows carries a reported Papp at 90 min.
# Experiment summary: Caco-2 A-B permeability assay
# Assay type: in vitro ADME
# Test settings: human, Caco-2, pH 7.4, A-B, read-out: Permeability (individual replicates 1, 2)
Where a name gives a salt, the structure may show the parent alone.
Provide only the numeric value, understood in ×10⁻⁶ cm/s.

>  <Compound>
CC(C)(C)Sc1ccc(NC(=O)Cn2ccnc2)cc1

>  <Unit label>
×10⁻⁶ cm/s

>  <Papp at 90 min>
39.5

$$$$
>  <Compound>
Cc1nc2c(c(N3CCCN(Cc4ccccc4)CC3)n1)CCCC2

>  <Unit label>
×10⁻⁶ cm/s

>  <Papp at 90 min>
52.8

$$$$
>  <Compound>
CC(C)c1nccn1CC(=O)Nc1ccc(-c2ccccc2)cc1

>  <Unit label>
×10⁻⁶ cm/s

>  <Papp at 90 min>
17.9

$$$$
>  <Compound>
O=C(Cn1cnc2c1CCCC2)Nc1ccc(-c2ccccc2)cc1

>  <Unit label>
×10⁻⁶ cm/s

>  <Papp at 90 min>
8.3

$$$$
>  <Compound>
CC(C)NCC(O)COc1cccc2ccccc12 (stereo not drawn) [Propranolol, propranolol hydrochloride, reference compound]

>  <Unit label>
×10⁻⁶ cm/s

>  <Papp at 90 min>
23

$$$$

Here is another compound to look at.
QUERY: Name the recorded Papp at 90 min for O=C(Cn1ccnc1-c1ccccn1)Nc1ccc(-c2ccccc2)cc1 .
RESULT: 14.6

----------
This section presents molecules with their documented Fold increase (over baseline) values.
# Test system: TA 100
# Experiment summary: Ames Test, strain TA 100
# Test settings: TA 100, 200 μM
Number, no unit, nothing else.

QUERY: Recorded Fold increase (over baseline) of O=C(Cn1cnc2c1CCCC2)Nc1ccc(-c2ccccc2)cc1 [Compound 1] , please.
RESULT: 0

QUERY: Again, but for CC(C)c1nccn1CC(=O)Nc1ccc(-c2ccccc2)cc1 [Compound 2]
RESULT: 1.61

QUERY: Next molecule up: O=C(Cn1ccnc1-c1ccccn1)Nc1ccc(-c2ccccc2)cc1 [Compound 4]
RESULT: 0.65

QUERY: Another molecule to check: Cc1nc2c(c(N3CCCN(Cc4ccccc4)CC3)n1)CCCC2 [Compound 31]
RESULT: 0.97

----------
# Experimental target: hERG channel (Homo sapiens (Human), UniProt Q12809)
# Sequence (Q12809 whole entry): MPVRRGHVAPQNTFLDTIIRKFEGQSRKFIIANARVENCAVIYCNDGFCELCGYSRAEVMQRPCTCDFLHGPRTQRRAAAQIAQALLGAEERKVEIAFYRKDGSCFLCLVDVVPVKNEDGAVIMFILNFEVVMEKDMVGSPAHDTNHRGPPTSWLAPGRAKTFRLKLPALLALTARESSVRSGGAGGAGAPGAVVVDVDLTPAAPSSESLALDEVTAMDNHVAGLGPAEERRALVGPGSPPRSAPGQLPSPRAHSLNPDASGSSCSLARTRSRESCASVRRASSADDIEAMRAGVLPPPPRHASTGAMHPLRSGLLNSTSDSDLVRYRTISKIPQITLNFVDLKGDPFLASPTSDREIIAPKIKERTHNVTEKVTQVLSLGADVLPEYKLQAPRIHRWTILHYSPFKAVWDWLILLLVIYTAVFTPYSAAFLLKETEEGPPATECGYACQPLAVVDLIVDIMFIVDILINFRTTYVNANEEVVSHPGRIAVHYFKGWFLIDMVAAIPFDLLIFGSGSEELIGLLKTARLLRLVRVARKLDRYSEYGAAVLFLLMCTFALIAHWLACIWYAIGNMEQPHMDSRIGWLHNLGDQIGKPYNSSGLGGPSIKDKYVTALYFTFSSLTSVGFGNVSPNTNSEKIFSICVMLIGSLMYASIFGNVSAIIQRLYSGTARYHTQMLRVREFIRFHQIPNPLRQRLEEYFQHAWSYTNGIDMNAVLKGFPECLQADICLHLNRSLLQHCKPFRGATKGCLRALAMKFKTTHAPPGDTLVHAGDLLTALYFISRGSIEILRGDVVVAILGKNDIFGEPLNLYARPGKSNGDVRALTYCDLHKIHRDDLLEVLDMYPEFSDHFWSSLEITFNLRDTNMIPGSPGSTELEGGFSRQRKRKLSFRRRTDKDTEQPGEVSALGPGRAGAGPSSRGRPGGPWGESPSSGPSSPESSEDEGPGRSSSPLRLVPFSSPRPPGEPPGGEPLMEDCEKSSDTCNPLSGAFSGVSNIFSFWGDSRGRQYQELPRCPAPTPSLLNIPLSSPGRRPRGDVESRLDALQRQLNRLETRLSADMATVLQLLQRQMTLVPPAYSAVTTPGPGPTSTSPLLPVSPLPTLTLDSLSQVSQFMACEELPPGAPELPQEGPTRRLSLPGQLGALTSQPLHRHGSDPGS
# Test settings: 20 μM
# Binding values, % Mean listing for each entry below
Record the result as number plus unit.

For orientation, consider the following solved cases.
>  <Compound>
Cc1nc2c(c(N3CCCN(Cc4ccccc4)CC3)n1)CCCC2 [Compound 31]

>  <Binding values, % Mean>
88%

$$$$
>  <Compound>
O=C(Cn1cnc2c1CCCC2)Nc1ccc(-c2ccccc2)cc1 [Compound 1]

>  <Binding values, % Mean>
103%

$$$$
>  <Compound>
CC(C)(C)Sc1ccc(NC(=O)Cn2ccnc2)cc1 [Compound 3]

>  <Binding values, % Mean>
99%

$$$$
>  <Compound>
CC(C)c1nccn1CC(=O)Nc1ccc(-c2ccccc2)cc1 [Compound 2]

>  <Binding values, % Mean>
91%

$$$$

// switching to the query compound
QUERY: Any idea what its Binding values, % Mean is? The compound is O=C(Cn1ccnc1-c1ccccn1)Nc1ccc(-c2ccccc2)cc1 [Compound 4]
RESULT: 22%

----------
# System: TA 1537
# Experiment summary: Ames Test, strain TA 1537
# Test settings: TA 1537, 50 μM (row printed 100; conc. column shifted)
Measured parameter: Fold increase (over baseline)
Answer with a number only.

>  <Smiles text>
CC(C)(C)Sc1ccc(NC(=O)Cn2ccnc2)cc1

>  <Reported result>
0.45

$$$$
>  <Smiles text>
CC(C)c1nccn1CC(=O)Nc1ccc(-c2ccccc2)cc1

>  <Reported result>
0.68

$$$$
>  <Smiles text>
O=C(Cn1ccnc1-c1ccccn1)Nc1ccc(-c2ccccc2)cc1

>  <Reported result>
0.23

$$$$

QUERY: Would you mind telling me what Fold increase (over baseline) value was observed for Cc1nc2c(c(N3CCCN(Cc4ccccc4)CC3)n1)CCCC2 ?
RESULT: 0.45

QUERY: Would you kindly repeat that for O=C(Cn1cnc2c1CCCC2)Nc1ccc(-c2ccccc2)cc1 ?
RESULT: 0.23
